# protocol: Plasma exposure (dried blood spot) after single oral dose
# Format: in vivo
# conditions.used: male, Sprague Dawley, rat, whole blood (dried blood spot), po, 3 mg/kg, oral 3 mg/kg, 6 h, dried blood spot, read-out: Concentration, Mean
measured.quantity: concentration at 6 h (nM)
Quick reminder: number only, in nM, skip the unit.

Suppose we examine the compound O=c1c2nnc(C3(C4CC4)CC3)n2c2c(n1CC1CC1)CCCC2 [BTTQ] ; what concentration at 6 h value has been reported?
1760

###

# protocol: Plasma exposure (dried blood spot) after single oral dose
# Type: in vivo
# conditions.used: male, Sprague Dawley, rat, whole blood (dried blood spot), po, 0.3 mg/kg, oral 0.3 mg/kg, 5 h, dried blood spot, read-out: Concentration, Mean
# Procedure: Male Sprague Dawley rats at 6 to 7 weeks were dosed orally by p.o. gavage with different doses of BTTQ formulated in 1% hydroxyethlycellulose (Dow Corning, Midland, MI, United States) (w/v), 0.25% polysorbate 80 (Sigma-Aldrich, St. Louis, MO, United States) (v/v), and 0.05% antifoam (v/v; Dow Corning, Midland, MI, United States) in purified water. […]
measured.quantity: concentration at 5 h (nM)
Quick reminder: number only, in nM, skip the unit.

Suppose we examine the compound O=c1c2nnc(C3(C4CC4)CC3)n2c2c(n1CC1CC1)CCCC2 ; what concentration at 5 h value has been reported?
164

###

# protocol: Plasma exposure (dried blood spot) after single oral dose
# Format: in vivo
# conditions.used: male, Sprague Dawley, rat, whole blood (dried blood spot), po, 3 mg/kg, oral 3 mg/kg, 5 h, FU 0.053, read-out: Unbound Concentration, individual animals
measured.quantity: concentration at 5 h (nM)
Quick reminder: number only, in nM, skip the unit.

Suppose we examine the molecule O=c1c2nnc(C3(C4CC4)CC3)n2c2c(n1CC1CC1)CCCC2 ; what concentration at 5 h value has been reported?
142

###

# protocol: Plasma exposure (dried blood spot) after single oral dose
# Format: in vivo
# conditions.used: male, Sprague Dawley, rat, whole blood (dried blood spot), po, 0.1 mg/kg, oral 0.1 mg/kg, 3 h, FU 0.053, read-out: Unbound Concentration, individual animals
measured.quantity: concentration at 3 h (nM)
Quick reminder: number only, in nM, skip the unit.

Suppose we examine the molecule O=c1c2nnc(C3(C4CC4)CC3)n2c2c(n1CC1CC1)CCCC2 [BTTQ] ; what concentration at 3 h value has been reported?
8.9

###

# protocol: Plasma exposure (dried blood spot) after single oral dose
# Assay type: in vivo
# conditions.used: male, Sprague Dawley, rat, whole blood (dried blood spot), po, 0.03 mg/kg, oral 0.03 mg/kg, 4 h, dried blood spot, read-out: Concentration, Mean
measured.quantity: concentration at 4 h (nM)
Quick reminder: number only, in nM, skip the unit.

Suppose we examine the compound O=c1c2nnc(C3(C4CC4)CC3)n2c2c(n1CC1CC1)CCCC2 [BTTQ] ; what concentration at 4 h value has been reported?
34.2

###

# protocol: Plasma exposure (dried blood spot) after single oral dose
# Assay type: in vivo
# conditions.used: male, Sprague Dawley, rat, whole blood (dried blood spot), po, 3 mg/kg, oral 3 mg/kg, 4 h, FU 0.053, read-out: Unbound Concentration, individual animals
measured.quantity: concentration at 4 h (nM)
Quick reminder: number only, in nM, skip the unit.

Suppose we examine the compound O=c1c2nnc(C3(C4CC4)CC3)n2c2c(n1CC1CC1)CCCC2 ; what concentration at 4 h value has been reported?
155

###

# protocol: Plasma exposure (dried blood spot) after single oral dose
# Type: in vivo
# conditions.used: male, Sprague Dawley, rat, whole blood (dried blood spot), po, 0.1 mg/kg, oral 0.1 mg/kg, 5 h, dried blood spot, read-out: Concentration, individual animals
measured.quantity: concentration at 5 h (nM)
Quick reminder: number only, in nM, skip the unit.

Suppose we examine the molecule O=c1c2nnc(C3(C4CC4)CC3)n2c2c(n1CC1CC1)CCCC2 [BTTQ] ; what concentration at 5 h value has been reported?
113

###

# protocol: Plasma exposure (dried blood spot) after single oral dose
# Type: in vivo
# conditions.used: male, Sprague Dawley, rat, whole blood (dried blood spot), po, 3 mg/kg, oral 3 mg/kg, 3 h, FU 0.053, read-out: Unbound Concentration, Mean
measured.quantity: concentration at 3 h (nM)
Quick reminder: number only, in nM, skip the unit.

Suppose we examine the compound O=c1c2nnc(C3(C4CC4)CC3)n2c2c(n1CC1CC1)CCCC2 ; what concentration at 3 h value has been reported?
168

###

# protocol: Plasma exposure (dried blood spot) after single oral dose
# Type: in vivo
# conditions.used: male, Sprague Dawley, rat, whole blood (dried blood spot), po, 0.1 mg/kg, oral 0.1 mg/kg, 3 h, dried blood spot, read-out: Concentration, Mean
measured.quantity: concentration at 3 h (nM)
Quick reminder: number only, in nM, skip the unit.

Suppose we examine the compound O=c1c2nnc(C3(C4CC4)CC3)n2c2c(n1CC1CC1)CCCC2 ; what concentration at 3 h value has been reported?
169

###

# protocol: Plasma exposure (dried blood spot) after single oral dose
# Assay type: in vivo
# conditions.used: male, Sprague Dawley, rat, whole blood (dried blood spot), po, 0.1 mg/kg, oral 0.1 mg/kg, 6 h, dried blood spot, read-out: Concentration, individual animals
measured.quantity: concentration at 6 h (nM)
Quick reminder: number only, in nM, skip the unit.

Suppose we examine the compound O=c1c2nnc(C3(C4CC4)CC3)n2c2c(n1CC1CC1)CCCC2 ; what concentration at 6 h value has been reported?
87.1

###

# protocol: Plasma exposure (dried blood spot) after single oral dose
# Type: in vivo
# conditions.used: male, rat, whole blood (dried blood spot); after oral administration, Sprague Dawley rats
measured.quantity: half-life

Suppose we examine the compound O=c1c2nnc(C3(C4CC4)CC3)n2c2c(n1CC1CC1)CCCC2 ; what half-life value has been reported?
~4 h

###

# protocol: Plasma exposure (dried blood spot) after single oral dose
# Assay type: in vivo
# conditions.used: male, Sprague Dawley, rat, whole blood (dried blood spot), po, 1 mg/kg, oral 1 mg/kg, 6 h, dried blood spot, read-out: Concentration, individual animals
# Procedure: Male Sprague Dawley rats at 6 to 7 weeks were dosed orally by p.o. gavage with different doses of BTTQ formulated in 1% hydroxyethlycellulose (Dow Corning, Midland, MI, United States) (w/v), 0.25% polysorbate 80 (Sigma-Aldrich, St. Louis, MO, United States) (v/v), and 0.05% antifoam (v/v; Dow Corning, Midland, MI, United States) in purified water. […]
measured.quantity: concentration at 6 h (nM)
Quick reminder: number only, in nM, skip the unit.

Suppose we examine the compound O=c1c2nnc(C3(C4CC4)CC3)n2c2c(n1CC1CC1)CCCC2 ; what concentration at 6 h value has been reported?
779

###

# protocol: Plasma exposure (dried blood spot) after single oral dose
# Assay type: in vivo
# conditions.used: male, Sprague Dawley, rat, whole blood (dried blood spot), po, 0.3 mg/kg, oral 0.3 mg/kg, 3 h, dried blood spot, read-out: Concentration, individual animals
measured.quantity: concentration at 3 h (µM)
Quick reminder: number only, in µM, skip the unit.

Suppose we examine the compound O=c1c2nnc(C3(C4CC4)CC3)n2c2c(n1CC1CC1)CCCC2 ; what concentration at 3 h value has been reported?
0.278

###

# protocol: Plasma exposure (dried blood spot) after single oral dose
# Type: in vivo
# conditions.used: male, Sprague Dawley, rat, whole blood (dried blood spot), po, 3 mg/kg, oral 3 mg/kg, 5 h, FU 0.053, read-out: Unbound Concentration, Mean
measured.quantity: concentration at 5 h (nM)
Quick reminder: number only, in nM, skip the unit.

Suppose we examine the compound O=c1c2nnc(C3(C4CC4)CC3)n2c2c(n1CC1CC1)CCCC2 ; what concentration at 5 h value has been reported?
115

###

# protocol: Plasma exposure (dried blood spot) after single oral dose
# Format: in vivo
# conditions.used: male, Sprague Dawley, rat, whole blood (dried blood spot), po, 3 mg/kg, oral 3 mg/kg, 3 h, dried blood spot, read-out: Concentration, individual animals
measured.quantity: concentration at 3 h (µM)
Quick reminder: number only, in µM, skip the unit.

Suppose we examine the compound O=c1c2nnc(C3(C4CC4)CC3)n2c2c(n1CC1CC1)CCCC2 ; what concentration at 3 h value has been reported?
3.18

###

# protocol: Plasma exposure (dried blood spot) after single oral dose
# Type: in vivo
# conditions.used: male, Sprague Dawley, rat, whole blood (dried blood spot), po, 0.03 mg/kg, oral 0.03 mg/kg, 2 h, dried blood spot, read-out: Concentration, Mean
measured.quantity: concentration at 2 h
Please answer using the number first and the unit second.

Suppose we examine the compound O=c1c2nnc(C3(C4CC4)CC3)n2c2c(n1CC1CC1)CCCC2 ; what concentration at 2 h value has been reported?
50.2 nM

###

# protocol: Plasma exposure (dried blood spot) after single oral dose
# Assay type: in vivo
# conditions.used: male, Sprague Dawley, rat, whole blood (dried blood spot), po, 0.3 mg/kg, oral 0.3 mg/kg, 2 h, FU 0.053, read-out: Unbound Concentration, individual animals
measured.quantity: concentration at 2 h (nM)
Quick reminder: number only, in nM, skip the unit.

Suppose we examine the molecule O=c1c2nnc(C3(C4CC4)CC3)n2c2c(n1CC1CC1)CCCC2 [BTTQ] ; what concentration at 2 h value has been reported?
19.3
